System: MALME-3M melanoma
Test: NCI tumour cell line growth inhibition, 48 h
METRIC NAME: GI50

>>> print(df.to_string())
                                  structure  metric_name  result_value
0  COc1ccc(-c2cc(-c3cc(OC)c(OC)c(OC)c3)c(C#N)c(N3CCOCC3)n2)cc1O         GI50      > 100 µM
1  COc1ccc2c(c1)[n+](=O)c(C(=O)/C=C/c1cc(OC)c(OC)c(OC)c1)c(C)n2[O-]         GI50       19.1 µM
2  COc1ccc(C(=O)COc2cccc(/C=C3\CSc4ccc(C)cc4C3=O)c2)cc1         GI50         41 µM
3  Cc1ccc(S(=O)(=O)Cc2nc(-c3ccc(C(=O)NCc4cccnc4)cc3)oc2C)cc1         GI50       27.5 µM
4  O=C(OCc1ccc2c(Cl)cc(Cl)c(O)c2n1)c1cc2ccccc2[nH]1         GI50       1.26 µM

Attribution: PubChem BioAssay (NCI)
